# Test system: COLO 205 colorectal tumor cells
# TEST DESCRIPTION: Tumor cell viability inhibition assay (CellTiter-Glo 2.0, 72 hours)
# Type: cell-based
# APPLIED CONDITIONS: Homo sapiens, COLO 205, 72 h, COLO 205 cell viability
Item-by-item account of IC50

The following compounds have reported results that may help.
{"COMPOUND": "Cc1cc(-c2cc(Cl)ccc2OCCn2c(C)nc3c(c2=O)C[C@H](N2CC[C@@H](OC(F)(F)F)C(F)(F)C2)CC3)c2scc(C(=O)O)c2n1 (single isomer, unassigned)", "TESTED TARGET": "COLO 205 colorectal tumor cells", "IC50": "5 to 20 µM"}
{"COMPOUND": "Cc1cc(-c2cc(Cl)ccc2OCCn2c(C)nc3c(c2=O)CC(N2CCC4(COC4)C2)CC3)c2scc(C(=O)O)c2n1 (stereo not drawn)", "TESTED TARGET": "COLO 205 colorectal tumor cells", "IC50": "< 5 µM"}
{"COMPOUND": "Cc1cc(-c2cc(Cl)ccc2OCCn2c(C)nc3c(c2=O)CC(NCC2CC(F)(F)C2)CC3)c2scc(C(=O)O)c2n1 (stereo not drawn)", "TESTED TARGET": "COLO 205 colorectal tumor cells", "IC50": "5 to 20 µM"}
{"COMPOUND": "Cc1cc(-c2cc(Cl)ccc2OCCn2c(C)nc3c(c2=O)CC(N(C)C2CCCC2(F)F)CC3)c2scc(C(=O)O)c2n1 (single isomer, unassigned)", "TESTED TARGET": "COLO 205 colorectal tumor cells", "IC50": "< 5 µM"}
{"COMPOUND": "COC1CCN(C2CCc3nc(C)n(CC#Cc4ccc(Cl)cc4-c4ccnc5c(C(=O)NS(C)(=O)=O)csc45)c(=O)c3C2)CC1 (single isomer, unassigned)", "TESTED TARGET": "COLO 205 colorectal tumor cells", "IC50": "< 5 µM"}

Query string: Looking for the measured IC50 of Cc1nc2c(c(=O)n1CC#Cc1ccc(Cl)cc1-c1ccnc3c(C(=O)NS(C)(=O)=O)csc13)CC(N(C)C1CC(F)(F)C1)CC2 (single isomer, unassigned) , can you help?
Result string: < 5 µM

Query string: # lookup: IC50 of Cc1cc(-c2cc(Cl)ccc2OCCn2c(C)nc3c(c2=O)C[C@@H](N(C)C[C@H]2C[C@](C)(O)C2)CC3)c2scc(C(=O)O)c2n1 (single isomer, unassigned)
Result string: > 20 µM

# credit: patent US20240246918A1
